measurement_name: melting point

>>> reported("N/C(=N\\[N+](=O)[O-])NC[C@H]1CN(c2ccc(N3Cc4cccnc4C3)c(F)c2)C(=O)O1 [Compound 24]")
"202 to 206 °C"
>>> reported("CC(=O)NC[C@H]1CN(c2ccc(N3Cc4cn(C[C@@H](O)CO)nc4C3)c(F)c2)C(=O)O1 [Compound 69]")
"184 to 188 °C"
>>> reported("CC(=O)NC[C@H]1CN(c2ccc(N3Cc4cnn(CC5CC5)c4C3)c(F)c2)C(=O)O1 (single isomer, unassigned) [Compound 73]")
"234 to 236 °C"
>>> reported("CCCn1ncc2c1CN(c1ccc(N3C[C@H](CNC(C)=O)OC3=O)cc1F)C2 [Compound 45]")
"204 to 208 °C"
>>> reported("O=C1O[C@@H](COc2cnccn2)CN1c1ccc(-n2cc3cccnc3c2)c(F)c1 [Compound 10]")
"192 to 194 °C"
>>> reported("CC(=O)NC[C@H]1CN(c2ccc(N3Cc4cnn(CCO)c4C3)c(F)c2)C(=O)O1 [Compound 53]")
"163 to 165 °C"
>>> reported("CC(=O)NC[C@@H]1CN(c2ccc(-n3cc4cccnc4c3)c(F)c2)C(=O)O1 [Compound 6]")
"181 to 185 °C (dec.)"
>>> reported("CC(=O)NC[C@H]1CN(c2ccc(N3Cc4cnc(-c5cnccn5)nc4C3)c(F)c2)C(=O)O1 [Compound 38]")
"212 to 214 °C"

====

Readings of melting point for the listed compounds
measurement_name: melting point

>>> reported("CC(=O)NC[C@H]1CN(c2ccc(N3Cc4ccccc4C3)c(F)c2)C(=O)O1")
"240 to 242 °C"
>>> reported("O=C1O[C@@H](COc2cnsn2)CN1c1ccc(N2Cc3cccnc3C2)c(F)c1")
"185 to 187 °C"
>>> reported("CC(=O)NC[C@H]1CN(c2ccc(N3Cc4cnn(C(C)(C)C)c4C3)c(F)c2)C(=O)O1")
"155 to 157 °C"
>>> reported("CC(=O)NC[C@H]1CN(c2ccc(-n3cc4cc[n+]([O-])cc4c3)c(F)c2)C(=O)O1")
"219 to 225 °C (dec.)"
>>> reported("[N-]=[N+]=NC[C@H]1CN(c2ccc(N3Cc4cccnc4C3)c(F)c2)C(=O)O1")
"175 to 180 °C (dec.)"
>>> reported("CC(=O)NC[C@H]1CN(c2ccc(N3Cc4cnc(-c5ccccn5)nc4C3)c(F)c2)C(=O)O1")
"216 to 220 °C"
>>> reported("O=C1O[C@@H](COc2ccon2)CN1c1ccc(N2Cc3cccnc3C2)c(F)c1")
"182 to 185 °C"
>>> reported("CC(=O)NC[C@H]1CN(c2ccc(N3Cc4cn(CCO)nc4C3)c(F)c2)C(=O)O1")
"232 to 242 °C (dec.)"
>>> reported("CC(=O)NC[C@H]1CN(c2ccc(N3Cc4c[nH]nc4C3)c(F)c2)C(=O)O1")
"244 to 247 °C (dec.)"
>>> reported("O=C(NC[C@H]1CN(c2ccc(N3Cc4cccnc4C3)c(F)c2)C(=O)O1)C1CC1")
"235 to 240 °C"

====

Readings of melting point for the listed compounds
measurement_name: melting point

>>> reported("CC(=O)NC[C@H]1CN(c2ccc(-n3cc4cncnc4c3)c(F)c2)C(=O)O1")
"164 to 166 °C"
>>> reported("CC(=O)NC[C@H]1CN(c2ccc(N3Cc4cn(CC(F)(F)F)nc4C3)c(F)c2)C(=O)O1")
"170 to 172 °C"
>>> reported("CC(=O)NC[C@H]1CN(c2ccc(N3Cc4cncnc4C3)c(F)c2)C(=O)O1")
"230 to 232 °C"
>>> reported("CC(=O)NC[C@H]1CN(c2ccc(N3Cc4cn(-c5ccccn5)nc4C3)c(F)c2)C(=O)O1")
"259 to 261 °C (dec.)"

====

Readings of melting point for the listed compounds
measurement_name: melting point

>>> reported("O=C1O[C@@H](COc2cnsn2)CN1c1ccc(-n2cc3cccnc3c2)c(F)c1")
"185 to 188 °C"
>>> reported("CS/C(=N\\C#N)NC[C@H]1CN(c2ccc(N3Cc4cccnc4C3)c(F)c2)C(=O)O1")
"204 to 207 °C"
>>> reported("CC(=O)NC[C@H]1CN(c2ccc(N3Cc4cccnc4C3=O)c(F)c2)C(=O)O1")
"230 to 232 °C"
>>> reported("CC(=O)NC[C@H]1CN(c2ccc(N3C(=O)c4ccccc4C3=O)c(F)c2)C(=O)O1")
"240 to 242 °C"
>>> reported("CC(=O)NC[C@H]1CN(c2ccc(N3Cc4cnc(C)nc4C3)c(F)c2)C(=O)O1")
"234 °C (dec.)"
>>> reported("CC(=O)NC[C@H]1CN(c2ccc(N3Cc4cn(CCCO)nc4C3)c(F)c2)C(=O)O1")
"171 to 173 °C"
>>> reported("CCC(=O)NC[C@H]1CN(c2ccc(N3Cc4cccnc4C3)c(F)c2)C(=O)O1")
"110 to 112 °C"
>>> reported("O=C1O[C@@H](COc2ccon2)CN1c1ccc(-n2cc3cccnc3c2)c(F)c1")
"133 to 135 °C"

====

measurement_name: melting point

>>> reported("CC(=O)NC[C@H]1CN(c2ccc(N3Cc4cnn(C)c4C3)c(F)c2)C(=O)O1")
"211 to 213 °C"
>>> reported("CC(=O)NC[C@H]1CN(c2ccc(N3Cc4cnc(-c5cccnc5)nc4C3)c(F)c2)C(=O)O1")
"265 to 270 °C (dec.)"
>>> reported("CC(=O)NC[C@H]1CN(c2ccc(-n3cc4ccncc4c3)c(F)c2)C(=O)O1")
"219 to 225 °C (dec.)"
>>> reported("CC(=O)NC[C@H]1CN(c2ccc(N3Cc4ncccc4C3=O)c(F)c2)C(=O)O1")
"207 to 209 °C"
>>> reported("CC(=O)NC[C@H]1CN(c2ccc(N3Cc4cn(C[C@H](O)CO)nc4C3)c(F)c2)C(=O)O1")
"188 to 191 °C"
>>> reported("CC(=O)NC[C@H]1CN(c2ccc(N3Cc4cnc(-c5ccncc5)nc4C3)c(F)c2)C(=O)O1")
"245 to 250 °C (dec.)"
>>> reported("CS(=O)(=O)NC[C@H]1CN(c2ccc(N3Cc4cccnc4C3)c(F)c2)C(=O)O1")
"172 to 176 °C"
>>> reported("CNC(=S)n1cc2c(n1)CN(c1ccc(N3C[C@H](CNC(C)=O)OC3=O)cc1F)C2")
"246 to 249 °C"
